Hey, just so you know, these numbers are from patent US11512079B2.

The following compounds are shown together with reported MIC values.
# Test system: Cryptococcus neoformans H99

{"structure.smiles": "Nc1ncccc1-c1cc(Cc2ccc(Cc3cccc(F)n3)cc2)no1", "system.under.test": "Cryptococcus neoformans H99", "MIC": "0.01 to 0.1 µg/mL"}
{"structure.smiles": "Nc1ncccc1-c1cc(Cc2ccc(OCCc3ccc(F)cc3)nc2)no1", "system.under.test": "Cryptococcus neoformans H99", "MIC": "0.01 to 0.1 µg/mL"}
{"structure.smiles": "Cn1cc(Cc2ccc(Cc3cc(-c4cccnc4N)on3)cc2)cn1", "system.under.test": "Cryptococcus neoformans H99", "MIC": "0.1 to 1 µg/mL"}
{"structure.smiles": "Nc1ncccc1-c1cc(Cc2ccc(OCc3cccc(F)n3)nc2)no1", "system.under.test": "Cryptococcus neoformans H99", "MIC": "0.01 to 0.1 µg/mL"}
{"structure.smiles": "Nc1ncccc1-c1cc(Cc2ccc(OCc3ccccn3)cc2)no1", "system.under.test": "Cryptococcus neoformans H99", "MIC": "0.01 to 0.1 µg/mL"}
{"structure.smiles": "[N-]=[N+]=Nc1cccc(NCc2ccc(Cc3cc(-c4cccnc4N)on3)cc2)c1", "system.under.test": "Cryptococcus neoformans H99", "MIC": "0.01 to 0.1 µg/mL"}
{"structure.smiles": "N#Cc1cccc(COc2ccc(Cc3cc(-c4cccnc4N)on3)cc2)n1", "system.under.test": "Cryptococcus neoformans H99", "MIC": "0.1 to 1 µg/mL"}
{"structure.smiles": "Nc1ncccc1-c1cc(Cc2cnc(Oc3cc(F)cc(F)c3)c(F)c2)no1", "system.under.test": "Cryptococcus neoformans H99", "MIC": "0.1 to 1 µg/mL"}
{"structure.smiles": "Nc1ncccc1-c1cc(Cc2ccc(Cc3cccnc3)cc2)no1", "system.under.test": "Cryptococcus neoformans H99", "MIC": "0.1 to 1 µg/mL"}
{"structure.smiles": "Nc1ccc(-c2cc(Cc3ccc(OCc4ccccc4)cc3)no2)c(N)n1", "system.under.test": "Cryptococcus neoformans H99", "MIC": "0.01 to 0.1 µg/mL"}
{"structure.smiles": "Nc1ncccc1-c1cc(Cc2ccc(CNc3ccnc(F)c3)cc2)no1", "system.under.test": "Cryptococcus neoformans H99", "MIC": "0.1 to 1 µg/mL"}
{"structure.smiles": "Nc1ncccc1-c1cc(Cc2ccc(Oc3nc(Cl)cs3)cc2)no1", "system.under.test": "Cryptococcus neoformans H99", "MIC": "0.01 to 0.1 µg/mL"}
{"structure.smiles": "Nc1ncccc1-c1cc(Cc2ccc(OCc3ccccc3)cc2)no1", "system.under.test": "Cryptococcus neoformans H99", "MIC": "0.01 to 0.1 µg/mL"}
{"structure.smiles": "Nc1ncccc1-c1cc(Cc2ccc(OCc3ccoc3)nc2)no1", "system.under.test": "Cryptococcus neoformans H99", "MIC": "0.01 to 0.1 µg/mL"}
{"structure.smiles": "Nc1ncccc1-c1cc(Cc2ccc(CNc3cc(F)ccc3F)cc2)no1", "system.under.test": "Cryptococcus neoformans H99", "MIC": "0.01 to 0.1 µg/mL"}
{"structure.smiles": "Nc1ncccc1-c1cc(Cc2cnc(OCc3ccccc3)c(F)c2)no1", "system.under.test": "Cryptococcus neoformans H99", "MIC": "0.1 to 1 µg/mL"}
{"structure.smiles": "COc1cc(F)cc(NCc2ccc(Cc3cc(-c4cccnc4N)on3)cc2)c1", "system.under.test": "Cryptococcus neoformans H99", "MIC": "0.1 to 1 µg/mL"}
{"structure.smiles": "Nc1ncccc1-c1cc(Cc2ccc(Sc3ccccc3)nc2)no1", "system.under.test": "Cryptococcus neoformans H99", "MIC": "0.1 to 1 µg/mL"}
{"structure.smiles": "Nc1ncccc1-c1cc(Cc2ccc(COc3cccc(F)c3)cc2)no1", "system.under.test": "Cryptococcus neoformans H99", "MIC": "0.01 to 0.1 µg/mL"}

---

Entries and their MIC
# Test system: Cryptococcus gattii
readout.type: MIC

{"structure.smiles": "Nc1ncccc1-c1cc(Cc2ccc(OCc3cccc(F)n3)nc2)no1", "reported.value": "0.1 to 1 µg/mL"}
{"structure.smiles": "C#CCCOc1ccc(Cc2cc(-c3cccnc3N)on2)cn1", "reported.value": "0.1 to 1 µg/mL"}
{"structure.smiles": "COc1c(F)cc(F)cc1NCc1ccc(Cc2cc(-c3cccnc3N)on2)cc1", "reported.value": "> 1 µg/mL"}
{"structure.smiles": "Nc1ncccc1-c1cc(Cc2ccc(OCc3cncc(F)c3)cc2)no1", "reported.value": "0.1 to 1 µg/mL"}
{"structure.smiles": "Nc1ncccc1-c1cc(Cc2ccc(OCc3ccnc(Cl)c3)cc2)no1", "reported.value": "≤ 0.01 µg/mL"}
{"structure.smiles": "Nc1ncccc1-c1cc(Cc2ccc(OCc3ccncc3Cl)nc2)no1", "reported.value": "> 1 µg/mL"}
{"structure.smiles": "Nc1ncccc1-c1cc(Cc2ccc(Cc3ccco3)cc2)no1", "reported.value": "0.01 to 0.1 µg/mL"}
{"structure.smiles": "Nc1ncccc1-c1cc(Cc2ccc(OCc3cccc(Cl)n3)nc2)no1", "reported.value": "0.1 to 1 µg/mL"}
{"structure.smiles": "Nc1ncccc1-c1cc(Cc2ccc(Nc3c(F)cccc3F)nc2)no1", "reported.value": "0.01 to 0.1 µg/mL"}

---

Item-by-item account of minimal effective concentration
# System: Aspergillus fumigatus MYA3626
# test.protocol: In vitro antifungal assay (Example IX), microdilution broth, MEC
# Type: cell-based
# study.conditions: minimum effective concentration (shortening of hyphae), 35° C., 40-48 h, RPMI1640
readout.type: minimal effective concentration

{"compound": "Nc1ncccc1-c1cc(Cc2ccc(OCc3ccc(F)nc3)cc2)no1", "reported.value": "0.01 to 0.1 µg/mL"}
{"compound": "Nc1ncccc1-c1cc(Cc2ccc(OCc3cscn3)nc2)no1", "reported.value": "0.01 to 0.1 µg/mL"}
{"compound": "Nc1ncccc1-c1cc(Cc2ccc(OCc3ccc4ccccc4n3)cc2)no1", "reported.value": "> 1 µg/mL"}
{"compound": "Nc1ncccc1-c1cc(Cc2ccc(Nc3ccccc3F)nc2)no1", "reported.value": "0.1 to 1 µg/mL"}
{"compound": "Nc1ncccc1-c1cnn(Cc2ccc(Sc3ccccc3)nc2)c1", "reported.value": "0.1 to 1 µg/mL"}
{"compound": "Nc1ncccc1-c1cc(Cc2cnc(Oc3cc(F)cc(F)c3)nc2)no1", "reported.value": "0.1 to 1 µg/mL"}
{"compound": "Nc1ncccc1-c1cc(Cc2ccc(Oc3ncccn3)c(F)c2)no1", "reported.value": "0.01 to 0.1 µg/mL"}
{"compound": "Nc1ncccc1-c1cc(Cc2ccc(Nc3ccccc3)nc2)no1", "reported.value": "0.1 to 1 µg/mL"}
{"compound": "Nc1ncccc1-c1cc(Cc2cnc(Oc3cccc(F)c3)c(F)c2)no1", "reported.value": "0.1 to 1 µg/mL"}
{"compound": "C#CCOc1ccc(Cc2cc(-c3cccnc3N)on2)cn1", "reported.value": "0.1 to 1 µg/mL"}
{"compound": "Nc1ncccc1-c1cc(Cc2ccc(OC3CCCc4cccnc43)nc2)no1 (stereo not shown)", "reported.value": "> 1 µg/mL"}
{"compound": "N#CCc1ccc(Cc2cc(-c3cccnc3N)on2)cc1", "reported.value": "0.1 to 1 µg/mL"}
{"compound": "Nc1ncccc1-c1cc(Cc2ccc(OCc3ccc(F)cn3)nc2)no1", "reported.value": "0.01 to 0.1 µg/mL"}
{"compound": "Nc1ncccc1-c1cc(Cc2ccc(OCc3cccc(F)c3)nc2)no1", "reported.value": "≤ 0.01 µg/mL"}
{"compound": "Nc1ncccc1-c1cc(Cc2ccc(COc3ccccc3F)cc2)no1", "reported.value": "0.01 to 0.1 µg/mL"}
{"compound": "Nc1ncccc1-c1cc(Cc2ccc(/C=C/c3cccc(F)c3)cc2)no1", "reported.value": "0.1 to 1 µg/mL"}
{"compound": "Nc1ncccc1-c1cc(Cc2ccc(OCc3cccc(Br)n3)nc2)no1", "reported.value": "0.01 to 0.1 µg/mL"}
{"compound": "Nc1ncccc1-c1cc(Cc2ccnc(OCc3cccc(F)c3)c2)no1", "reported.value": "0.01 to 0.1 µg/mL"}
{"compound": "Nc1ncccc1-c1cc(Cc2ccc(Oc3ccc(F)cc3)nc2)no1", "reported.value": "0.01 to 0.1 µg/mL"}
{"compound": "COc1ccc(COc2ccc(Cc3cc(-c4cccnc4N)on3)cc2)cc1", "reported.value": "> 1 µg/mL"}
{"compound": "Nc1ncccc1-c1cc(Cc2ccc(Cc3cccnc3)cc2)no1", "reported.value": "0.1 to 1 µg/mL"}
{"compound": "Nc1ccc(-c2cc(Cc3ccc(CNc4ccccc4)cc3)no2)c(N)n1", "reported.value": "0.01 to 0.1 µg/mL"}
{"compound": "Nc1ncccc1-c1cc(Cc2ccc(CNc3cnc4[nH]ccc4c3)cc2)no1", "reported.value": "0.1 to 1 µg/mL"}
{"compound": "CC(C)Cn1cc(Cc2ccc(Cc3cc(-c4cccnc4N)on3)cc2)cn1", "reported.value": "0.1 to 1 µg/mL"}
{"compound": "Nc1ncccc1-c1cc(Cc2ccc(Cn3cccn3)cc2)no1", "reported.value": "0.1 to 1 µg/mL"}
